List of IC50 values.
target: Integrin alpha-4/beta-1 (Homo sapiens, UniProt P05556+P13612); assay: Antagonist activity at integrin alpha4beta1 receptor in human CCRF-CEM cells assessed as inhibition of cell adhesion to fibronectin after 1 hr by calcein AM staining-based fluorescence assay
Sequence (P05556 whole entry): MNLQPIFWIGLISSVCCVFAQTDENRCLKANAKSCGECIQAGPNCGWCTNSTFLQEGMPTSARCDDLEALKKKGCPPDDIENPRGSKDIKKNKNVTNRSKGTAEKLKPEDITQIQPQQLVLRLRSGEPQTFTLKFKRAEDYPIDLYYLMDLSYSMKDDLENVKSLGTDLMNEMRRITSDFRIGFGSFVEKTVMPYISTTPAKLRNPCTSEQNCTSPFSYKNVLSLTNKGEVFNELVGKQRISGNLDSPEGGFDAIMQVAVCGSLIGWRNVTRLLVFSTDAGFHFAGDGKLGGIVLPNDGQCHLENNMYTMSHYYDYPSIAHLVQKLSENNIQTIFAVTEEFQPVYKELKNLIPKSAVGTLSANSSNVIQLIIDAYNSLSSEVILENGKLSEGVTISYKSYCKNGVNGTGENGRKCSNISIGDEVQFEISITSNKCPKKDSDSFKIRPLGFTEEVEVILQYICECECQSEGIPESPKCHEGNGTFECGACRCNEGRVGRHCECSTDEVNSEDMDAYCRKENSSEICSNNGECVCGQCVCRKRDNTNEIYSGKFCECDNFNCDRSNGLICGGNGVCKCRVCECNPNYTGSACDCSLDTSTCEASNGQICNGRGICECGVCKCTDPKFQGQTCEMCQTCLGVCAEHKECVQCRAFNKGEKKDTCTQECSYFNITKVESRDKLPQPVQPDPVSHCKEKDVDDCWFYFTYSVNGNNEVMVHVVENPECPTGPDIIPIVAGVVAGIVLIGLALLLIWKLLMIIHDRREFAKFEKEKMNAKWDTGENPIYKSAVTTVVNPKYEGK
Sequence (P13612 whole entry): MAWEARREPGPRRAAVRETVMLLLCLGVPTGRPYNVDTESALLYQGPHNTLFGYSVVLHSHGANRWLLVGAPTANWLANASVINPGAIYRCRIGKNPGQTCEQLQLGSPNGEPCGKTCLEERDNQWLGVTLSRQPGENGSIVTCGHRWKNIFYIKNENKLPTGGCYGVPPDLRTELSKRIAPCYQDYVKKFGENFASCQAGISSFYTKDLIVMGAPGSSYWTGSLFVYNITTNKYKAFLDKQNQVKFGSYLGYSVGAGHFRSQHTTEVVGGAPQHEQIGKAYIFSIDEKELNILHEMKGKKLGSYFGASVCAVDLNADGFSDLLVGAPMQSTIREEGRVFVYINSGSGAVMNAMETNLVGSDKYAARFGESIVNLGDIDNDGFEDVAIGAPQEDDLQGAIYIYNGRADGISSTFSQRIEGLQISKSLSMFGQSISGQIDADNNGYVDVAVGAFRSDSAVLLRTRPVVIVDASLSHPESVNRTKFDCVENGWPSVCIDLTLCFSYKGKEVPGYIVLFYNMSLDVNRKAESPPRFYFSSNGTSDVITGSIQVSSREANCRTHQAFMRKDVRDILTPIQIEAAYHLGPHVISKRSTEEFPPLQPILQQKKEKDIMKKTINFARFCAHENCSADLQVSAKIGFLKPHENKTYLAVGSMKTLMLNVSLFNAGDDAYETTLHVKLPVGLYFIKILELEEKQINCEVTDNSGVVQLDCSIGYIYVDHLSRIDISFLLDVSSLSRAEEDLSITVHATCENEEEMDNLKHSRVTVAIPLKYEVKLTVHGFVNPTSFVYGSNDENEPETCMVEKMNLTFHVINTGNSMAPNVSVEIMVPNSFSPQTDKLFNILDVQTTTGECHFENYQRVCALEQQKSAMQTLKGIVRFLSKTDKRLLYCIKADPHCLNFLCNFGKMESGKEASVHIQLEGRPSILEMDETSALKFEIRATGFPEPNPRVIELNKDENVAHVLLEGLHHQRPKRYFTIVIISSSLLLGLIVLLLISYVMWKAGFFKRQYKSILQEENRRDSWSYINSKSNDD

{"columns": ["Compound Structure String", "IC50"],
 "data": [
  ["O=C(O)Cc1ccc(NC(=O)Nc2ccccc2C(F)(F)F)cc1", "> 1000 µM"],
  ["N=C(N)NCCC[C@H](NC(=O)CN)C(=O)NCC(=O)N[C@@H](CC(=O)O)C(=O)N[C@@H](CO)C(=O)O", "> 1000 µM"],
  ["Cc1cccc(C)c1NC(=O)Nc1ccc(CC(=O)O)cc1", "> 1000 µM"],
  ["O=C(O)CCc1ccc(NC(=O)Cc2ccc(NC(=O)Nc3ccccc3C(F)(F)F)cc2)cc1O", "> 500 µM"]
]}
